- method-summary: NCI Yeast Anticancer Drug Screen. Data for the rad50 strain (AID 155)
- condition-set: S. cerevisiae rad50 strain growth inhibition; at 5.0 µM (retest, dose inferred, filed as 0.5); active compounds read high
This is part of a sample that, as a whole, favours compounds with a hit. Of some 79,000 tested, about 15% had one in any assay.
# cutoff 20% applies to growth inhibition; >= gives condition met, < gives condition not met

- molecule: "CC(O[Si](C)(C)C(C)(C)C)C(=O)Sc1ccccn1 (stereo not drawn)"
  assigned-category: "condition not met"
- molecule: "OCCSC(=S)Nc1ccc(Cl)c(Cl)c1"
  assigned-category: "condition met"
- molecule: "Oc1cccc2cc(Br)cnc12"
  assigned-category: "condition met"
- molecule: "CC(C)(C)c1cc2c3c(c1)Oc1cc(C(C)(C)C)cc4c1C3(O)c1c(cc(C(C)(C)C)cc1O4)O2"
  assigned-category: "condition not met"
- molecule: "Cc1ccc2nc(C[n+]3cccc4ccccc43)ccc2c1"
  assigned-category: "condition met"
- molecule: "O=C1C=CC(=O)N1c1ccccc1[N+](=O)[O-]"
  assigned-category: "condition met"
- molecule: "COC(=O)/C(=C/C=C(c1ccccc1)c1ccccc1)N(C(C)=O)C(C)=O"
  assigned-category: "condition not met"
- molecule: "O=C(Nc1ccc(Cl)cc1)Nc1nnc2nc(C(C(=O)c3ccc(F)cc3)c3nc4nnc(NC(=O)Nc5ccc(Cl)cc5)n4[nH]c3=O)c(=O)[nH]n12"
  assigned-category: "condition not met"
- molecule: "CCOC(=O)C1CN(CCCCCCN2CC(C(=O)OCC)C(=O)C2=O)C(=O)C1=O (stereo not drawn)"
  assigned-category: "condition not met"
- molecule: "O=C1/C(=C\\c2ccccc2)C(NC2CCCCC2)c2ccccc21 (stereo not drawn)"
  assigned-category: "condition met"
- molecule: "O=C1O/C(=C(/Cl)c2c3ccccc3cc3ccccc23)c2ccccc21"
  assigned-category: "condition not met"
- molecule: "O=[N+]([O-])c1ccc2c(c1)CCc1ccccc1-2"
  assigned-category: "condition not met"
- molecule: "CC1=CC(=O)CC(c2ccccc2)C1 (stereo not drawn)"
  assigned-category: "condition met"
